Assay: DUSP6 inhibitors restoring Erk phosphorylation by chemical complementation, primary imaging in DUSP6-transfected HeLa (AID 609)
Settings: HeLa MKP-3 transfected, phospho-Erk imaging KS statistic; measured here: cell density z-score; at 10 µM; cells stimulated with TPA for 15 min

>  <MOLECULE>
CCOC(=O)C(C)Oc1ccc2c(C)cc(=O)oc2c1C(C)=O (centres undefined)

>  <z-score>
-0.905

$$$$
>  <MOLECULE>
Cc1c(C)[n+](=O)c2c(n1[O-])CCC2

>  <z-score>
-0.661

$$$$
>  <MOLECULE>
Cc1cc2nncn2c(Cc2ccccc2)n1

>  <z-score>
-1.1

$$$$
>  <MOLECULE>
CN1CCc2c(c3c(n2C)CCN(C)[C@@H]3c2cccnc2)[C@H]1c1cccnc1

>  <z-score>
0.329

$$$$
